target: soluble recombinant HLA-DR4 (HLA-DRβ1*04:01) (human); test: ELISA; apparent Kd; direct binding of biotin-labeled peptide to DR4 as in the DR-ELISA (72 h), binding reactions set up with 1 µM HLA-DM
Where no end group is shown, it is not given here.
Parameter: Kd (nM)
Please respond with the number in nM and leave the unit unwritten.

Would you mind telling me what Kd value was observed for QNSLSTEWSPCSVT (not fully specified (N-terminus)) [biotin-labeled QNT-5 332-345 peptide] ?
714

Continuing:
Would you mind telling me what Kd value was observed for QNSYSTEWSPCSVT (not fully specified (N-terminus)) [biotin-labeled QNT-Y peptide (QNT-5 analogue L335Y)] ?
35.7
